Test: Antiplatelet activity in human platelet rich plasma assessed as inhibition of arachidonic acid-induced platelet aggregation preincubated for 3 mins before arachidonic acid challenge by turbidimetric method
Format: functional
# note: boundary value 900 nM maps to NO; IC50 below it maps to YES

Reference set, count: 5
- ITEM_SMILES: "Cn1nc(-c2ccc(Cl)cc2)cc1C(=O)N1CCCCC1"
  GROUP_LABEL: "NO"
- ITEM_SMILES: "COc1ccc(-n2nc(C(=O)OCCC(C)C)cc2-c2ccc(Cl)cc2)nn1"
  GROUP_LABEL: "NO"
- ITEM_SMILES: "Cn1nc(-c2ccc(Cl)cc2)cc1C(=O)N1CCOCC1"
  GROUP_LABEL: "NO"
- ITEM_SMILES: "COc1ccc(NC(=O)c2cc(-c3ccc(Cl)cc3)n(-c3ccc(OC)nn3)n2)cc1"
  GROUP_LABEL: "YES"
- ITEM_SMILES: "CC(=O)Oc1ccccc1C(=O)O"
  GROUP_LABEL: "NO"

Then there is this compound:
Q: Lab log: compare recorded IC50 with 900 nM; is it strictly lower for COc1ccc2c(c1)c(CC(=O)O)c(C)n2C(=O)c1ccc(Cl)cc1 ?
A: NO

----------
Assay: Antiplatelet activity in human platelet rich plasma assessed as inhibition of ADP-induced platelet aggregation at 10 uM preincubated for 3 mins before ADP challenge by turbidimetric method
Assay type: functional
Form field: inhibition at 10 µM (one value per entry).
Give the value, in units of %, as a plain number.

- ITEM_SMILES: "COc1ccc(NC(=O)c2cc(-c3ccc(Cl)cc3)n(-c3ccc(OC)nn3)n2)cc1"
  inhibition at 10 µM (%): 3.92
- ITEM_SMILES: "COc1ccc(-n2nc(C(=O)Nc3ccncc3)cc2-c2ccc(Cl)cc2)nn1"
  inhibition at 10 µM (%): 8.14
- ITEM_SMILES: "COc1ccc(-n2nc(C(=O)N3CCOCC3)cc2-c2ccc(Cl)cc2)nn1"
  inhibition at 10 µM (%): 11.3
- ITEM_SMILES: "COc1ccc(-n2nc(C(=O)Oc3ccc4ccccc4c3)cc2-c2ccc(Cl)cc2)nn1"
  inhibition at 10 µM (%): 3.34
- ITEM_SMILES: "COc1ccc(-n2nc(C(=O)N3CCN(c4ccc(C(F)(F)F)cn4)CC3)cc2-c2ccc(Cl)cc2)nn1"
  inhibition at 10 µM (%): 6.8

Form: molecule = COc1ccc(-n2nc(C(=O)Nc3ccc(Cl)cc3)cc2-c2ccc(Cl)cc2)nn1 ; inhibition at 10 µM = 7.93

Form: molecule = COc1ccc(-n2nc(C(=O)N3CCN(c4ncccn4)CC3)cc2-c2ccc(Cl)cc2)nn1 ; inhibition at 10 µM = 2.7

Form: molecule = COc1ccc(-n2nc(C(=O)OCCC(C)C)cc2-c2ccc(Cl)cc2)nn1 ; inhibition at 10 µM = 6.77

----------
Experiment: Antiplatelet activity in human platelet rich plasma assessed as inhibition of collagen-induced platelet aggregation at 1 uM preincubated for 3 mins before collagen challenge by turbidimetric method
Assay type: functional
ATTRIBUTE_MEASURED: inhibition at 1 µM
Please format your answer as a value with the unit trailing.

- ITEM_SMILES: "COc1ccc(NC(=O)c2cc(-c3ccc(Cl)cc3)n(-c3ccc(OC)nn3)n2)cc1"
  inhibition at 1 µM: "43.6%"
- ITEM_SMILES: "COc1ccc(-n2nc(C(=O)OCCC(C)C)cc2-c2ccc(Cl)cc2)nn1"
  inhibition at 1 µM: "34.2%"
- ITEM_SMILES: "COc1ccc(-n2nc(C(=O)Nc3ccncc3)cc2-c2ccc(Cl)cc2)nn1"
  inhibition at 1 µM: "77.6%"

Form: compound = COc1ccc(-n2nc(C(=O)Nc3ccc(Cl)cc3)cc2-c2ccc(Cl)cc2)nn1 ; inhibition at 1 µM = 25.7%

Form: compound = COc1ccc(-n2nc(C(=O)N3CCCCC3)cc2-c2ccc(Cl)cc2)nn1 ; inhibition at 1 µM = 76.8%

Form: compound = CCCOc1ccc(OC(=O)c2cc(-c3ccc(Cl)cc3)n(-c3ccc(OC)nn3)n2)cc1 ; inhibition at 1 µM = 32.2%

Form: compound = COc1ccc(-n2nc(C(=O)N3CCOCC3)cc2-c2ccc(Cl)cc2)nn1 ; inhibition at 1 µM = 74.2%

----------
Test: Antiplatelet activity in human platelet rich plasma assessed as inhibition of collagen-induced platelet aggregation at 10 uM preincubated for 3 mins before collagen challenge by turbidimetric method
Type: functional
Could you label it 1.0 if measured inhibition at 10 µM is 40% or higher, and 0.0 otherwise?

Reference set, count: 8
- ITEM_SMILES: "COc1ccc(-n2nc(C(=O)N3CCOCC3)cc2-c2ccc(Cl)cc2)nn1"
  GROUP_LABEL: 1.0
- ITEM_SMILES: "COc1ccc(-n2nc(C(=O)N3CCN(c4ccc(F)cc4)CC3)cc2-c2ccc(Cl)cc2)nn1"
  GROUP_LABEL: 0.0
- ITEM_SMILES: "COc1ccc(-n2nc(C(=O)Oc3ccc(-n4ccnc4)cc3)cc2-c2ccc(Cl)cc2)nn1"
  GROUP_LABEL: 0.0
- ITEM_SMILES: "COc1ccc(NC(=O)c2cc(-c3ccc(Cl)cc3)n(-c3ccc(OC)nn3)n2)cc1"
  GROUP_LABEL: 1.0
- ITEM_SMILES: "COc1ccc(-n2nc(C(=O)Oc3cccnc3Cl)cc2-c2ccc(Cl)cc2)nn1"
  GROUP_LABEL: 0.0
- ITEM_SMILES: "COc1ccc(-n2nc(C(=O)Oc3ccc(C)cc3)cc2-c2ccc(Cl)cc2)nn1"
  GROUP_LABEL: 1.0
- ITEM_SMILES: "COc1ccc(-n2nc(C(=O)N3CCN(c4ncccn4)CC3)cc2-c2ccc(Cl)cc2)nn1"
  GROUP_LABEL: 0.0
- ITEM_SMILES: "COc1ccc(-n2nc(C(=O)Nc3ccncc3)cc2-c2ccc(Cl)cc2)nn1"
  GROUP_LABEL: 1.0

Q: Say whether COc1ccc(OC(=O)c2cc(-c3ccc(Cl)cc3)n(-c3ccc(OC)nn3)n2)cc1 shows inhibition at 10 µM of 40% or more.
A: 0.0

Q: Say whether COc1ccc(-n2nc(C(=O)Nc3ccc(Cl)cc3)cc2-c2ccc(Cl)cc2)nn1 shows inhibition at 10 µM of 40% or more.
A: 1.0

Q: Say whether CCCOc1ccc(OC(=O)c2cc(-c3ccc(Cl)cc3)n(-c3ccc(OC)nn3)n2)cc1 shows inhibition at 10 µM of 40% or more.
A: 1.0

Q: Say whether COc1ccc(-n2nc(C(=O)N3CCN(c4ccc(C(F)(F)F)cn4)CC3)cc2-c2ccc(Cl)cc2)nn1 shows inhibition at 10 µM of 40% or more.
A: 0.0

Q: Say whether COc1ccc(-n2nc(C(=O)Oc3ccc4ccccc4c3)cc2-c2ccc(Cl)cc2)nn1 shows inhibition at 10 µM of 40% or more.
A: 0.0

Q: Say whether COc1ccc(-n2nc(C(=O)N3CCCCC3)cc2-c2ccc(Cl)cc2)nn1 shows inhibition at 10 µM of 40% or more.
A: 1.0

----------
Assay: Antiplatelet activity in human platelet rich plasma assessed as inhibition of arachidonic acid-induced platelet aggregation preincubated for 3 mins before arachidonic acid challenge by turbidimetric method
Assay type: functional
Form field: IC50 (one value per entry).
Give the value, in units of µM, as a plain number.

Field: example entries. Status: answers known.
- ITEM_SMILES: "COc1ccc(-n2nc(C(=O)N3CCOCC3)cc2-c2ccc(Cl)cc2)nn1"
  IC50 (µM): 0.083
- ITEM_SMILES: "COc1ccc(-n2nc(C(=O)N3CCCC3)cc2-c2ccc(Cl)cc2)nn1"
  IC50 (µM): 0.015
- ITEM_SMILES: "COc1ccc(-n2nc(C(=O)N3CCCCC3)cc2-c2ccc(Cl)cc2)cc1"
  IC50 (µM): 0.0079

Form: compound = COc1ccc(-n2nc(C(=O)N3CCCCC3)cc2-c2ccc(Cl)cc2)nn1 ; IC50 = 0.041

Form: compound = CS(=O)(=O)c1ccc(-n2nc(C(=O)N3CCCCC3)cc2-c2ccc(Cl)cc2)nn1 ; IC50 = 19.6

Form: compound = COc1ccc(-n2nc(C(=O)N3CCOCC3)cc2-c2ccc(Cl)cc2)cc1 ; IC50 = 0.0073

Form: compound = COc1ccc(-n2nc(CCC(=O)N3CCOCC3)cc2-c2ccc(Cl)cc2)nn1 ; IC50 = 1.08

Form: compound = COc1ccc(-c2onc(C(=O)N3CCOCC3)c2-c2ccc(Cl)cc2)cc1 ; IC50 = 18.4

Form: compound = COc1ccc(-n2nc(C(=O)Nc3ccncc3)cc2-c2ccc(Cl)cc2)nn1 ; IC50 = 0.11

Form: compound = COc1ccc(-n2nc(C(=O)N3CCN(c4ccc(C(F)(F)F)cn4)CC3)cc2-c2ccc(Cl)cc2)nn1 ; IC50 = 5.49

Form: compound = COc1ccc(-n2nc(C(=O)Nc3ccc(Cl)cc3)cc2-c2ccc(Cl)cc2)nn1 ; IC50 = 0.61
